- System: CCRIS mutagenicity, Ames/micronucleus/aberration tests
- assay-comment: CCRIS mutagenicity studies
- cond: Test System: AMES SALMONELLA TYPHIMURIUM; Strain/Indicator: TA1538; Metabolic Activation: RAT, LIVER, S-9, AROCLOR 1254; Method: STANDARD PLATE
The source made the active and inactive calls. No rule for the calls is given here.
Write down one outcome, taken from active, inactive

These solved cases illustrate the format of a correct answer.
compound	class-assignment
CC(C)CC(NC(=O)COc1ccc(Cl)cc1Cl)C(=O)O (stereo not given)	inactive
NCCNCCN	inactive
CCCCCCCCCCCCOC(=O)CCSCCC(=O)OCCCCCCCCCCCC	inactive

Ask: Write down the call the test reported for this compound. Item: `COc1cc(N)cc(OC)c1N`
Reply: inactive

Ask: Item: O=C1NC(=O)C(c2ccccc2)(c2ccc(O)cc2)N1 (stereo not given)
Reply: inactive

----------
- System: CCRIS mutagenicity, Ames/micronucleus/aberration tests
- assay-comment: CCRIS mutagenicity studies
- cond: Test System: AMES SALMONELLA TYPHIMURIUM; Strain/Indicator: TA100; Metabolic Activation: RAT, LIVER, S-9, AROCLOR 1254; Method: STANDARD PLATE
Activity calls are given as the source filed them. How the calls were made is not given here. Where a SMILES comes first, the peptide text is derived from it.
Write down one outcome, taken from active, inactive

These solved cases illustrate the format of a correct answer.
compound	tested-on	class-assignment
CC(C)=CCC1=C(O)c2ccccc2C(=O)C1=O	CCRIS mutagenicity, Ames/micronucleus/aberration tests	inactive
Cc1ccc(N=CN(C)C=Nc2ccc(C)cc2C)c(C)c1	CCRIS mutagenicity, Ames/micronucleus/aberration tests	inactive
O=S(=O)(NO)c1cccc2cccnc12	CCRIS mutagenicity, Ames/micronucleus/aberration tests	inactive
CC(C)C[C@H](NC(=O)[C@H](Cc1ccccc1)NC(=O)CNC(=O)CN)C(=O)O (H-GGFL-OH)	CCRIS mutagenicity, Ames/micronucleus/aberration tests	inactive
Nc1ccc(Cc2ccc(N)cc2)cc1	CCRIS mutagenicity, Ames/micronucleus/aberration tests	active

Ask: Write down the call the test reported for this compound. Item: `O=C(O)c1cc([N+](=O)[O-])cc2cccnc12`
Reply: active

Ask: Item: `C[C@@H]1O[C@@H](OC[C@H]2O[C@@H](Oc3c(-c4ccc(OCCO)c(OCCO)c4)oc4cc(OCCO)cc(O)c4c3=O)[C@H](O)[C@@H](O)[C@@H]2O)[C@H](O)[C@H](O)[C@H]1O`
Reply: inactive

Ask: Item: `C[C@H](CCC(=O)NCCS(=O)(=O)O)[C@H]1CC[C@H]2[C@@H]3C[C@H](O)[C@@H]4C[C@H](O)CC[C@]4(C)[C@H]3CC[C@]12C`
Reply: inactive

Ask: Item: `O=CN(O)c1ccc(F)cc1`
Reply: active

Ask: Item: `Cc1c2cc(CO)ccc2nc2c1ccc1ccccc12`
Reply: active

----------
- System: CCRIS mutagenicity, Ames/micronucleus/aberration tests
- assay-comment: CCRIS mutagenicity studies
- cond: Test System: CHINESE HAMSTER V-79; Strain/Indicator: V-79/6-THIOGUANINE; Metabolic Activation: NONE; Method: REPLATING
The source made the active and inactive calls. No rule for the calls is given here.
Write down one outcome, taken from Yes for active, No for inactive

These solved cases illustrate the format of a correct answer.
>>> print(df.to_string())
                                   compound                                 tested_on  class_assignment
0  CNNc1ccn([C@@H]2O[C@H](CO)[C@@H](O)[C@H]2O)c(=O)n1  CCRIS mutagenicity, Ames/micronucleus/aberration tests               Yes
1  c1ccc2c(c1)cc1c3c2ccc2cccc(c23)C2OC12 (centres undefined)  CCRIS mutagenicity, Ames/micronucleus/aberration tests               Yes

Ask: Write down the call the test reported for this compound. Item: `NNc1ccn([C@@H]2O[C@H](CO)[C@@H](O)[C@H]2O)c(=O)n1`
Reply: Yes

Ask: Item: `CN(C)Nc1ccn([C@@H]2O[C@H](CO)[C@@H](O)[C@H]2O)c(=O)n1`
Reply: No
